# system: MSI1 full-length (mouse, UniProt Q61474 1-362)
# Sequence (Q61474 whole entry): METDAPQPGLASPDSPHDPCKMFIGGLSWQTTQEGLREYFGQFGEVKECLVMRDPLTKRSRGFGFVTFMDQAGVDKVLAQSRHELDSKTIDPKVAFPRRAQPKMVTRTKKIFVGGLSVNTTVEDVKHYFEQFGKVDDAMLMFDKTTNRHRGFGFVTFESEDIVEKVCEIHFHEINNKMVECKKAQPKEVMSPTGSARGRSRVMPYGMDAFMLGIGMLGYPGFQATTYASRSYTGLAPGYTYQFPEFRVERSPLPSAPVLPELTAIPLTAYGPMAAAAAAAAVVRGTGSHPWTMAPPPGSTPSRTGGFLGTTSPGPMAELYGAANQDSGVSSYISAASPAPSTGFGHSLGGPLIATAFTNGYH
# testName: nsRBNS (natural sequence RNA bind-n-seq); RBNS binding buffer (assumed for nsRBNS): 25 mM Tris pH 7.5, 150 mM KCl, 3 mM MgCl2, 0.01% Triton X-100, 500 ug/ml BSA, 20 U/ml SUPERase-In, 4 C; UNK is unkempt and MSI1 is Musashi-1; names of the RNAs are library labels; protein concentration not given here; high values mean tight binding
Whole data set: some 5,800 sequences, median “enrichment r” near 0.54, cut for the highest 2% near 16. Only a selection was taken, and the highest values are over-represented in it overall.
readout: binding signal (enrichment R)
Write it as a number; the unit enrichment R goes unstated.

Examples from the recorded data:
binder	measurementUnits	binding signal
chr10:122937732:122937852:-|CDS|ENSG00000119965|unk|total|mutant (ssRNA) RNA: GGGAGUUCUACAGUCCGACGAUCGUAAGUGACAACUCAAAUAUACCCAACUCCGAGUUGCUGCCUUUUCUCCAGAAUUUAUGCCGUCAAGUUAAUCAUCUCCAUGUGGGAAAUAAGACCGAGUGUCAGGAAAACAUCACCAAGCAACAGAGGAUUGAGCAUCA	enrichment R	0.448
chr3:97755980:97756081:+|3pUTR|ENSG00000080224|unk|FALSE|unique (ssRNA) RNA: GGGAGUUCUACAGUCCGACGAUCUAAUUAAAAAUCUCUUUCCUACCUUUAGUAAUUUGUAGGAUGAACUGUAUGCAUUUAGAUAGAAAUUGCUUUUGUUAAAUUUACAUUUAAACACAUCUUCAUUCACUUAGAGAAGCCAUACAACAGAGGAUUGAGCAUCA	enrichment R	19.4

Note: attention shifts to another entry.
INPUT: Entry under review: chr5:72207278:72207408:+|3pUTR|ENSG00000131711|msi1_unk|total|mutant (ssRNA) RNA: GGGAGUUCUACAGUCCGACGAUCAGAGAACAAUGACCUCAUUUUAUUUUCUAUGUCCGUUAUUUAUUUCAAAAUUAACAUUUCCGUUGAUUUUUGUCUGAUAAGUCUAUGUUUUGCACUGCUAACUAUGAUGAGGGUUUAAAACAACAGAGGAUUGAGCAUCA . Reported binding signal?
OUTPUT: 0.411
